Quick note: these are ΔTm numbers for system: Lysosomal acid glucosylceramidase (Homo sapiens)
value.type: ΔTm (°C)

Some molecules with recorded ΔTm:
smiles: O=S(=O)(c1ccc2c(c1)OCCO2)N1CCN(c2nc(-c3cccs3)nc3ccccc23)CC1
target: Lysosomal acid glucosylceramidase (Homo sapiens)
units.symbol: °C
value.observed: 0.24
--
smiles: COc1ccccc1S(=O)(=O)N1CCN(c2nc(-c3cccs3)nc3ccccc23)CC1
target: Lysosomal acid glucosylceramidase (Homo sapiens)
units.symbol: °C
value.observed: 0.55

[I] O=S(=O)(c1ccc2ccccc2c1)N1CCN(c2nc(-c3cccs3)nc3ccccc23)CC1
[II] OC[C@H]1CNC[C@@H](O)[C@@H]1O
[III] Cc1ccc(S(=O)(=O)N2CCN(c3nc(-c4cccs4)nc4ccccc34)CC2)cc1
Prompt: Sort the molecules on ΔTm; start with the lowest figure. Your answer should be the labels, listed in the requested order.
Completion: I, III, II
(I: -0.19 °C, III: -0.09 °C, II: 1.16 °C)
